- SUBJECT OF TEST: Receptor tyrosine-protein kinase erbB-2 (Homo sapiens, UniProt P04626)
- Sequence (P04626 whole entry, the tested form may be a part): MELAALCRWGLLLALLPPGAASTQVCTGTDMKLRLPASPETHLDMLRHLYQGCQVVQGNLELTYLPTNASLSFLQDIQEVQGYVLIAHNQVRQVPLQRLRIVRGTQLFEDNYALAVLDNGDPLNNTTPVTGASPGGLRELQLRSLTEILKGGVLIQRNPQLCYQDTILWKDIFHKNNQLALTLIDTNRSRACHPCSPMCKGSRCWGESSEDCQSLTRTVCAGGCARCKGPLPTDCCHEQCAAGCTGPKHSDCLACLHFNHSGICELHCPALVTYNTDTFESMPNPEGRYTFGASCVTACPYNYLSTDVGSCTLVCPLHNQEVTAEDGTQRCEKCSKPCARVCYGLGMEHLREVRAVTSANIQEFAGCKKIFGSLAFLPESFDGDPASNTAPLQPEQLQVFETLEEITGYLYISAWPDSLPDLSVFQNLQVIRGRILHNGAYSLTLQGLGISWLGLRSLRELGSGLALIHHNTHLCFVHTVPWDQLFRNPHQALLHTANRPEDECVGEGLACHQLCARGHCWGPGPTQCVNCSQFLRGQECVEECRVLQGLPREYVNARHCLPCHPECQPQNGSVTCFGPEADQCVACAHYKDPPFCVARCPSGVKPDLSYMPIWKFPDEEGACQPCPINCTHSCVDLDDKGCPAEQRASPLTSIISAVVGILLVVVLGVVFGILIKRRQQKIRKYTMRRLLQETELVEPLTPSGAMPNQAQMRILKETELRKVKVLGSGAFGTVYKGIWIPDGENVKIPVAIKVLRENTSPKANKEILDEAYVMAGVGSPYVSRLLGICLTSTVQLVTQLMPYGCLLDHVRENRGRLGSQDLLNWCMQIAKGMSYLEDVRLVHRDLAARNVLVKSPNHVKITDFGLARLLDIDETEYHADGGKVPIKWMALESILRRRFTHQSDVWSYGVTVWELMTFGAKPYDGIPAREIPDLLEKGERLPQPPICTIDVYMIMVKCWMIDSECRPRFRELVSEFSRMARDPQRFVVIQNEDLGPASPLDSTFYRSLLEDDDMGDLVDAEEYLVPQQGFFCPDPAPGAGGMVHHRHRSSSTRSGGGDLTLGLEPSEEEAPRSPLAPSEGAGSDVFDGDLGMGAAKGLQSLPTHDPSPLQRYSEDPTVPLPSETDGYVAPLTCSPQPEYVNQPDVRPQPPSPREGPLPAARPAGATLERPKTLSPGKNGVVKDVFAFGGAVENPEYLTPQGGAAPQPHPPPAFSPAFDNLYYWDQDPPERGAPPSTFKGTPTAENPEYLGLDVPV
- ASSAY: Inhibition of human HER2 cytoplasmic domain (amino acids 676 to 1245) expressed in Sf9 cells by DELFIA time resolved fluorometry
Documented IC50 across a set of compounds
ENDPOINT LABEL: IC50 (nM)

COc1ccc(-c2csc(N3N=C(c4ccc(Br)cc4)CC3c3ccc4c(c3)OCO4)n2)cc1 (stereo unspecified) :: 850
COc1ccc(-c2csc(N3N=C(c4ccc(Br)cc4)CC3c3ccc4c(c3)OCCO4)n2)cc1 (stereo unspecified) :: 1320
Cc1ccc(C2=NN(c3nc(-c4ccc(Br)cc4)cs3)C(c3ccc4c(c3)OCO4)C2)cc1 (stereo unspecified) :: 2230
Brc1ccc(C2=NN(c3nc(-c4ccc(Br)cc4)cs3)C(c3ccc4c(c3)OCCO4)C2)cc1 (stereo unspecified) :: 460
Clc1ccc(C2=NN(c3nc(-c4ccc(Br)cc4)cs3)C(c3ccc4c(c3)OCO4)C2)cc1 (stereo unspecified) :: 2380
Brc1ccc(C2=NN(c3nc(-c4ccc(Br)cc4)cs3)C(c3ccc4c(c3)OCO4)C2)cc1 (stereo unspecified) :: 180
